Tested on: 485368-065-R4-J2-PDC spheroids with HUVEC/MSC, viability;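 also: spheroids exposed to compounds for seven days before readout; 100% = DMSO vehicle control wells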
Test description: Anticancer human tumor 485368-065-R4-J2-PDC patient-derived pancreatic carcinoma cell line growth inhibition [TAK]
Experimental conditions: second compound 0.3 µM; first compound 1 µM; hits give low values

| Compound | viability, T/C [%] |
| --- | --- |
| CCCS(=O)(=O)Nc1ccc(F)c(C(=O)c2c[nH]c3ncc(-c4ccc(Cl)cc4)cc23)c1F + CC(C)NCC(C(=O)N1CCN(c2ncnc3c2C(C)CC3O)CC1)c1ccc(Cl)cc1 | 101 |
| COc1c(OCCCN2CCOCC2)ccc2c3n(c(=NC(=O)c4cnc(N)nc4)nc12)CCN3 + CC(C)NCC(C(=O)N1CCN(c2ncnc3c2C(C)CC3O)CC1)c1ccc(Cl)cc1 | 31.2 |
| Cc1nc(NC(=O)N2CCCC2C(N)=O)sc1-c1ccnc(C(C)(C)C(F)(F)F)c1 (centres undefined) + CC(C)NCC(C(=O)N1CCN(c2ncnc3c2C(C)CC3O)CC1)c1ccc(Cl)cc1 | 88.3 |
| CC(C)(C)c1nc(-c2cccc(NS(=O)(=O)c3c(F)cccc3F)c2F)c(-c2ccnc(N)n2)s1 + CC(C)NCC(C(=O)N1CCN(c2ncnc3c2C(C)CC3O)CC1)c1ccc(Cl)cc1 | 52.9 |
